Origin of measurements: the OPERA property sets (Mansouri et al. 2018)

Recorded log10 OH rate constant (cm³/molecule/s), one value per entry.
- CONDITION_CONTEXT: 25.0 °C

COMPOUND: FC(F)(F)F
log10 OH rate constant (cm³/molecule/s): < -15.4
//
COMPOUND: Cc1ccc2ccccc2c1[N+](=O)[O-]
log10 OH rate constant (cm³/molecule/s): < -11.1
//
COMPOUND: CC(C)CC=O
log10 OH rate constant (cm³/molecule/s): -10.6
//
COMPOUND: C#CCCC
log10 OH rate constant (cm³/molecule/s): -11
//
COMPOUND: Cc1cc(C)cc(C)c1
log10 OH rate constant (cm³/molecule/s): -10.2
//
COMPOUND: CCC(C)CS (stereo unspecified)
log10 OH rate constant (cm³/molecule/s): -10.3
//
COMPOUND: CCCCCC
log10 OH rate constant (cm³/molecule/s): -11.3
//
COMPOUND: C1CO1
log10 OH rate constant (cm³/molecule/s): -13.1
//
COMPOUND: Cc1ccccc1
log10 OH rate constant (cm³/molecule/s): -11.2
//
COMPOUND: COP(=S)(OC)SC
log10 OH rate constant (cm³/molecule/s): -10.3
//
COMPOUND: c1ccoc1
log10 OH rate constant (cm³/molecule/s): -10.4
//
COMPOUND: Clc1ccc(Cl)c2ccccc12
log10 OH rate constant (cm³/molecule/s): -11.2
//
COMPOUND: CC(C)CC(C)C
log10 OH rate constant (cm³/molecule/s): -11.3
//
COMPOUND: ClC=C(Cl)Cl
log10 OH rate constant (cm³/molecule/s): -11.6
//
COMPOUND: CCOC(C)(C)OCC
log10 OH rate constant (cm³/molecule/s): -10.9
//
COMPOUND: FC(Cl)Cl
log10 OH rate constant (cm³/molecule/s): -13.5
//
COMPOUND: C=C1C=CC(C(C)C)CC1 (stereo unspecified)
log10 OH rate constant (cm³/molecule/s): -9.77
//
COMPOUND: CCCCCCCC(C)=O
log10 OH rate constant (cm³/molecule/s): -10.9
//
COMPOUND: Cc1ccc(O)cc1
log10 OH rate constant (cm³/molecule/s): -10.3
//
COMPOUND: CCCCCCCCC(C)=O
log10 OH rate constant (cm³/molecule/s): -10.9
//
COMPOUND: CS
log10 OH rate constant (cm³/molecule/s): -10.5
//
COMPOUND: FC(F)C(F)(F)F
log10 OH rate constant (cm³/molecule/s): -14.6
//
COMPOUND: CCC(=O)CC
log10 OH rate constant (cm³/molecule/s): -11.7
//
COMPOUND: c1ccc2c(c1)CCCC2
log10 OH rate constant (cm³/molecule/s): -10.5
//
COMPOUND: CC1=CCC(C(C)C)=CC1
log10 OH rate constant (cm³/molecule/s): -9.75
//
COMPOUND: C=C=CC
log10 OH rate constant (cm³/molecule/s): -10.6
//
COMPOUND: C=CC(C)(C)C
log10 OH rate constant (cm³/molecule/s): -10.5
//
COMPOUND: CCCC(=O)CC
log10 OH rate constant (cm³/molecule/s): -11.2
//
COMPOUND: CCC(C)C
log10 OH rate constant (cm³/molecule/s): -11.4
//
COMPOUND: OCCCl
log10 OH rate constant (cm³/molecule/s): -11.9
//
COMPOUND: Brc1ccccc1
log10 OH rate constant (cm³/molecule/s): -12.1
//
COMPOUND: C1C2CC3CC1CC(C2)C3
log10 OH rate constant (cm³/molecule/s): -10.6
//
COMPOUND: CC(C)C(C)C
log10 OH rate constant (cm³/molecule/s): -11.2
//
COMPOUND: C#CC
log10 OH rate constant (cm³/molecule/s): -11.2
//
COMPOUND: Clc1ccc(Cl)cc1
log10 OH rate constant (cm³/molecule/s): -12.5
//
COMPOUND: COC(C)(C)OC
log10 OH rate constant (cm³/molecule/s): -11.4
//
COMPOUND: CCOCCOCCOCC
log10 OH rate constant (cm³/molecule/s): -10.6
//
COMPOUND: CCC(C)S (stereo unspecified)
log10 OH rate constant (cm³/molecule/s): -10.4
//
COMPOUND: CCCC
log10 OH rate constant (cm³/molecule/s): -11.6
//
COMPOUND: CC(=O)OC(C)C
log10 OH rate constant (cm³/molecule/s): -11.5
//
COMPOUND: CCOCOCC
log10 OH rate constant (cm³/molecule/s): -10.8
//
COMPOUND: O=[N+]([O-])c1ccccc1
log10 OH rate constant (cm³/molecule/s): -12.9
//
COMPOUND: CC(C)(N)CO
log10 OH rate constant (cm³/molecule/s): -10.6
//
COMPOUND: CCCC(C)O (stereo unspecified)
log10 OH rate constant (cm³/molecule/s): -10.9
//
COMPOUND: CCF
log10 OH rate constant (cm³/molecule/s): -12.6
//
COMPOUND: C1CCCCCCC1
log10 OH rate constant (cm³/molecule/s): -10.9
//
COMPOUND: C=CCCCC
log10 OH rate constant (cm³/molecule/s): -10.4
//
COMPOUND: C1CCCOCC1
log10 OH rate constant (cm³/molecule/s): -10.8
//
COMPOUND: CC(F)F
log10 OH rate constant (cm³/molecule/s): -13.5
//
COMPOUND: CCS
log10 OH rate constant (cm³/molecule/s): -10.3
//
COMPOUND: ClCCl
log10 OH rate constant (cm³/molecule/s): -12.8
//
COMPOUND: O=C1CCC1
log10 OH rate constant (cm³/molecule/s): -12.1
//
COMPOUND: C1COCCO1
log10 OH rate constant (cm³/molecule/s): -11
//
COMPOUND: CC(C)C(=O)O
log10 OH rate constant (cm³/molecule/s): -11.7
//
COMPOUND: CCC(O)CC
log10 OH rate constant (cm³/molecule/s): -10.9
//
COMPOUND: CC1=CCCCC1
log10 OH rate constant (cm³/molecule/s): -10
//
COMPOUND: FC(F)(F)c1ccccc1
log10 OH rate constant (cm³/molecule/s): -12.3
//
COMPOUND: CC(C)=Cc1ccccc1
log10 OH rate constant (cm³/molecule/s): -10.5
//
COMPOUND: OCC(F)(F)F
log10 OH rate constant (cm³/molecule/s): -13
//
COMPOUND: O=C1CCCCC1
log10 OH rate constant (cm³/molecule/s): -11.2
//
COMPOUND: O=[N+]([O-])c1ccccc1O
log10 OH rate constant (cm³/molecule/s): -12
//
COMPOUND: C/C=C/C=O
log10 OH rate constant (cm³/molecule/s): -10.4
//
COMPOUND: CCCCCCCCCCCCCC
log10 OH rate constant (cm³/molecule/s): -10.7
//
COMPOUND: CCCCCCCCC
log10 OH rate constant (cm³/molecule/s): -11
//
COMPOUND: COO
log10 OH rate constant (cm³/molecule/s): -11.3
//
COMPOUND: FC(F)(F)CCl
log10 OH rate constant (cm³/molecule/s): -13.8
